Biological target: T1, human TGFβ3, mature dimeric form (human, UniProt P10600 301-412)
T1 construct: Peprotech, expressed in E. coli; also called TGFb3
T1 sequence: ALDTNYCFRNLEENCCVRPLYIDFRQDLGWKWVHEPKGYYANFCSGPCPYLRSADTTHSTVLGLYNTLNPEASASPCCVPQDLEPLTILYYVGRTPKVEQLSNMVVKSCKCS
Assay: BIAcore T200
READOUT: Kd (pM)
The answer is to be given in pM; state only the numeric part.

Lookup result for h4A11.v7.16 (antibody, human IgG1, kappa, N297G, V domains shown) VH: EVQLQESGPGLVKPSETLSLTCTVTGFSLSSYTVNWIRQPAGKGLEWIGYISYGGSAYYASWANGRVTISKDTSKNQFSLKLSSVTAADTAVYFCARHMQVGGAPTGSMAAFDPWGQGTLVTVSS VL: EIVLTQSPGTLSLSPGERATLSCQSSQSVYNNNYLSWFQQKPGQAPRLLIYGASTLTSGIPDRFSGSGSGTDFTLTISRLEPEDFAVYYCAGGYSGSSDKYAFGGGTKVEIKR ; measured Kd: 6.6
